# TESTED_SYSTEM: human α1A‐adrenoceptor (Homo sapiens, UniProt P35348)
# Construct: expressed in transfected cells; host or cells: CHO-K1
# PROCEDURE_TEXT: ^3H‐cAMP accumulation, CHO‐α1A cells
# Format: cell-based
# TEST_CONTEXT: CHO‐α1A cells; % of 10 µM forskolin response
MEASURE_NAME: cAMP accumulation % forskolin

[[record]]
molecule = "O=C1Nc2ccccc2C2=NC(CN3CCN(c4ccccc4)CC3)CN12 (stereo not drawn) [2‐PMDQ]"
experimental_result = "No response"

[[record]]
molecule = "CN1C[C@H](C(=O)N[C@]2(C)O[C@@]3(O)[C@@H]4CCCN4C(=O)[C@H](Cc4ccccc4)N3C2=O)C[C@@H]2c3cccc4[nH]cc(c34)C[C@H]21 [Dihydroergotamine]"
experimental_result = "No response"

[[record]]
molecule = "COc1ccccc1N1CCN(CC2CN3C(=O)N(C)c4ccccc4C3=N2)CC1 (stereo not drawn) [2‐MPMDQ]"
experimental_result = "No response"


###

# TESTED_SYSTEM: human α1B‐adrenoceptor (Homo sapiens)
# Construct: expressed in transfected cells; host or cells: CHO-K1
# Sequence (P35368 whole entry): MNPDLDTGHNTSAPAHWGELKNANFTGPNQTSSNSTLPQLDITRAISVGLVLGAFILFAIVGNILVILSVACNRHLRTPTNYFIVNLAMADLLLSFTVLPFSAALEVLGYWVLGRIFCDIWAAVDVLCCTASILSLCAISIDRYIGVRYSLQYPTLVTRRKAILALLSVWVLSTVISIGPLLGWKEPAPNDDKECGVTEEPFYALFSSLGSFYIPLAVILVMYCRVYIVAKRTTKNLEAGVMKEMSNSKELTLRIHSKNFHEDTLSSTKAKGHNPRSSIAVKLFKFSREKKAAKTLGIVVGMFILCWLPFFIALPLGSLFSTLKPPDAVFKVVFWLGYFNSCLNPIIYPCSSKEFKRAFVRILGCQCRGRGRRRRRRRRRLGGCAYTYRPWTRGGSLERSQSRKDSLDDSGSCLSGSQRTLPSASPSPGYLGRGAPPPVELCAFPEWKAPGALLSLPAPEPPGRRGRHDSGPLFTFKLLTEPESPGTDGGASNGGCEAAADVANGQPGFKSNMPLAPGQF
# PROCEDURE_TEXT: ERK1/2‐phosphorylation (Surefire Alphascreen), CHO‐α1B cells
# Type: cell-based
# TEST_CONTEXT: CHO‐α1B cells; maximal response as % PDBu response; for bi‐phasic responses the initial stimulatory part
MEASURE_NAME: ERK1/2‐phosphorylation % PDBu (%)

[[record]]
compound = "NCCc1ccc(O)c(O)c1"
measure_name = "ERK1/2‐phosphorylation % PDBu"
endpoint_unit = "%"
experimental_result = 85.8

[[record]]
compound = "COc1ccc(OC)c(C(O)C(C)N)c1 (stereo not shown)"
measure_name = "ERK1/2‐phosphorylation % PDBu"
endpoint_unit = "%"
experimental_result = 83.8

[[record]]
compound = "CS(=O)(=O)Nc1c(O)ccc2c1CCCC2C1=NCCN1 (stereo not shown)"
measure_name = "ERK1/2‐phosphorylation % PDBu"
endpoint_unit = "%"
experimental_result = 54.5

[[record]]
compound = "c1ccc2c(c1)OCC(C1=NCCN1)O2 (stereo not shown)"
measure_name = "ERK1/2‐phosphorylation % PDBu"
endpoint_unit = "%"
experimental_result = 31.3

[[record]]
compound = "NC[C@H](O)c1ccc(O)c(O)c1"
measure_name = "ERK1/2‐phosphorylation % PDBu"
endpoint_unit = "%"
experimental_result = 75.0

[[record]]
compound = "O=C1CC2(CCCC2)CC(=O)N1CCCCN1CCN(c2ncccn2)CC1"
measure_name = "ERK1/2‐phosphorylation % PDBu"
endpoint_unit = "%"
experimental_result = 47.2

[[record]]
compound = "CC(C)NCC(O)c1ccc(O)c(O)c1 (stereo not shown)"
measure_name = "ERK1/2‐phosphorylation % PDBu"
endpoint_unit = "%"
experimental_result = 77.8

[[record]]
compound = "CCNCC(O)c1cccc(O)c1 (stereo not shown)"
measure_name = "ERK1/2‐phosphorylation % PDBu"
endpoint_unit = "%"
experimental_result = 78.8

[[record]]
compound = "Clc1ccc2nsnc2c1NC1=NCCN1"
measure_name = "ERK1/2‐phosphorylation % PDBu"
endpoint_unit = "%"
experimental_result = 57.7

[[record]]
compound = "c1ccc(C2CC2)c(OCC2=NCCN2)c1"
measure_name = "ERK1/2‐phosphorylation % PDBu"
endpoint_unit = "%"
experimental_result = 82.5

[[record]]
compound = "CNC[C@H](O)c1cccc(O)c1"
measure_name = "ERK1/2‐phosphorylation % PDBu"
endpoint_unit = "%"
experimental_result = 77.0


###

# TESTED_SYSTEM: human α1A‐adrenoceptor (Homo sapiens, UniProt P35348)
# Construct: expressed in transfected cells; host or cells: CHO-K1
# PROCEDURE_TEXT: ^3H‐prazosin whole‐cell radioligand binding, CHO‐α1A cells
Catalogue of Affinity selectivity ratio α1A vs α1B values
MEASURE_NAME: Affinity selectivity ratio α1A vs α1B

[[record]]
compound = "CC(C)(C)NCC(O)COc1cccc2[nH]c(=O)[nH]c12 (stereo not shown)"
measure_name = "Affinity selectivity ratio α1A vs α1B"
experimental_result = ">13.8 fold"

[[record]]
compound = "CC(N)C(O)c1ccc(O)c(O)c1 (stereo not drawn) [α‐Methylnorepinephrine]"
measure_name = "Affinity selectivity ratio α1A vs α1B"
experimental_result = ">20.9 fold"

[[record]]
compound = "Cc1ccc(/N=C/N(C)/C=N/c2ccc(C)cc2C)c(C)c1"
measure_name = "Affinity selectivity ratio α1A vs α1B"
experimental_result = ">33.1 fold"

[[record]]
compound = "CN[C@@H](C)[C@H](O)c1ccccc1"
measure_name = "Affinity selectivity ratio α1A vs α1B"
experimental_result = ">11.7 fold"


###

Here the recorded Affinity selectivity ratio α1B vs α1D is given for each entry.
# TESTED_SYSTEM: human α1D‐adrenoceptor (full length) (Homo sapiens)
# Construct: human α1D‐adrenoceptor (full length) were used; expressed in transfected cells; host or cells: CHO-K1
# Sequence (P25100 whole entry): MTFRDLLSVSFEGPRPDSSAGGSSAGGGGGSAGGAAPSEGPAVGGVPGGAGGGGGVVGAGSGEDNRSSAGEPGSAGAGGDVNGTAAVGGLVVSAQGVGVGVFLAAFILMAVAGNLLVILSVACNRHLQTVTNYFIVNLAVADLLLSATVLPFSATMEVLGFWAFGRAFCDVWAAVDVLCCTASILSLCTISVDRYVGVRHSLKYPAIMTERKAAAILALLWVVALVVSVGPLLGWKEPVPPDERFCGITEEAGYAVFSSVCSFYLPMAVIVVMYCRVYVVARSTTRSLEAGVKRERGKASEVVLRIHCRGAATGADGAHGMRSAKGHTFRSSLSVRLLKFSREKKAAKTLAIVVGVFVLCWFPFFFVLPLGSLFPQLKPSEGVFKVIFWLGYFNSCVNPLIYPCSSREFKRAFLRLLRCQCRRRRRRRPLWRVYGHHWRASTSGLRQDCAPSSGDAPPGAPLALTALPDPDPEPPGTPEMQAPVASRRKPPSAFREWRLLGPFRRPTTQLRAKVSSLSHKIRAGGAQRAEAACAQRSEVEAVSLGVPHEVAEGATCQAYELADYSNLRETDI
# PROCEDURE_TEXT: ^3H‐prazosin whole‐cell radioligand binding, CHO‐α1D cells
# TEST_CONTEXT: higher affinity for α1D than α1B
MEASURE_NAME: Affinity selectivity ratio α1B vs α1D

[[record]]
compound = "C1COC(NC(C2CC2)C2CC2)=N1 [Rilmenidine]"
measure_name = "Affinity selectivity ratio α1B vs α1D"
experimental_result = ">5.4 fold"

[[record]]
compound = "CCc1cccc(CC)c1NC1=NCCN1 [ST‐91]"
measure_name = "Affinity selectivity ratio α1B vs α1D"
experimental_result = "7.1 fold"

[[record]]
compound = "COc1ccc(OC)c(C(O)C(C)N)c1 (stereo not drawn) [Methoxamine]"
measure_name = "Affinity selectivity ratio α1B vs α1D"
experimental_result = ">6.6 fold"


###

# TESTED_SYSTEM: human α1A‐adrenoceptor (Homo sapiens, UniProt P35348)
# Construct: expressed in transfected cells; host or cells: CHO-K1
# Sequence (P35348 1-466): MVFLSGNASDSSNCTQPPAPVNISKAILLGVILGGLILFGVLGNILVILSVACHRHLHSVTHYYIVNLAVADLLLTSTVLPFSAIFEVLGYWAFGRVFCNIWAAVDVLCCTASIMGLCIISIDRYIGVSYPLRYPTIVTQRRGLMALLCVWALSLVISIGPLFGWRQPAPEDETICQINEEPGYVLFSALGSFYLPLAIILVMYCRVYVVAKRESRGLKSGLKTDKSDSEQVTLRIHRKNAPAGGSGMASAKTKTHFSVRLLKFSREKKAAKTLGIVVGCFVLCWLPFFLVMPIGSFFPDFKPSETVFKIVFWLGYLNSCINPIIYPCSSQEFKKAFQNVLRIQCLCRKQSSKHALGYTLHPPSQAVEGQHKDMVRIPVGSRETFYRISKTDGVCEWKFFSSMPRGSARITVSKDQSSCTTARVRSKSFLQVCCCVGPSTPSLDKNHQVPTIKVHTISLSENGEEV
# PROCEDURE_TEXT: Intracellular free calcium mobilization, CHO‐α1A cells
# Format: cell-based
# TEST_CONTEXT: CHO‐α1A cells; given as log EC50 (negative); read-out: Intracellular calcium release Log EC50 (converted)
MEASURE_NAME: EC50 (nM)

[[record]]
molecule = "Brc1c(NC2=NCCN2)ccc2nccnc12 [Brimonidine]"
measure_name = "EC50"
experimental_result = 117

[[record]]
molecule = "CC(C)(C)NCC(O)COc1cccc2[nH]c(=O)[nH]c12 (stereo not drawn) [CGP 12177]"
measure_name = "EC50"
experimental_result = 661

[[record]]
molecule = "NCC(O)c1ccc(O)cc1 (stereo not drawn) [Octopamine]"
measure_name = "EC50"
experimental_result = 794


###

# TESTED_SYSTEM: human α1A‐adrenoceptor (Homo sapiens, UniProt P35348)
# Construct: expressed in transfected cells; host or cells: CHO-K1
# PROCEDURE_TEXT: ^3H‐prazosin whole‐cell radioligand binding, CHO‐α1A cells
# TEST_CONTEXT: higher affinity for α1A than α1B
Below, each entry is listed with its recorded Affinity selectivity ratio α1A vs α1B.
MEASURE_NAME: Affinity selectivity ratio α1A vs α1B

[[record]]
compound = "CCN1CCc2nc(N)oc2CC1"
experimental_result = ">4.0 fold"

[[record]]
compound = "C1=C(c2cnc[nH]2)c2ccsc2CC1"
experimental_result = ">190 fold"

[[record]]
compound = "COc1ccc(OC)c(C(O)C(C)N)c1 (stereo not shown)"
experimental_result = ">42.7 fold"

[[record]]
compound = "C[C@H](N)[C@H](O)c1cccc(O)c1"
experimental_result = ">11.7 fold"

[[record]]
compound = "CCNCC(O)c1cccc(O)c1 (stereo not shown)"
experimental_result = ">9.8 fold"

[[record]]
compound = "C1COC(NC(C2CC2)C2CC2)=N1"
experimental_result = ">3.1 fold"

[[record]]
compound = "NCC(O)c1ccc(O)cc1 (stereo not shown)"
experimental_result = ">2.8 fold"


###

# TESTED_SYSTEM: human α1A‐adrenoceptor (Homo sapiens)
# Construct: expressed in transfected cells; host or cells: CHO-K1
# Sequence (P35348 1-466): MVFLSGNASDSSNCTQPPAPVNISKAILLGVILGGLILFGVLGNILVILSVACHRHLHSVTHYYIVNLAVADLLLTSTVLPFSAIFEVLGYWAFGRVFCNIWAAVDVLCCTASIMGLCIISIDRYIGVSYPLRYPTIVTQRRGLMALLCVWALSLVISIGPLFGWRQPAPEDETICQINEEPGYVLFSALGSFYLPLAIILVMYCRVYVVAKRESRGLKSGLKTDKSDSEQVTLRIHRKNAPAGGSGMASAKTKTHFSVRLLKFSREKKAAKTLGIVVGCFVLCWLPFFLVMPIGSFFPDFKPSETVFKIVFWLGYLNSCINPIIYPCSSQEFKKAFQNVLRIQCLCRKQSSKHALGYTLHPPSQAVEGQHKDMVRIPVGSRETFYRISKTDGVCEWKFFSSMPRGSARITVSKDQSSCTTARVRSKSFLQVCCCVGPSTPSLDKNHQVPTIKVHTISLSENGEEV
# PROCEDURE_TEXT: ^3H‐cAMP accumulation, CHO‐α1A cells
# Assay type: cell-based
# TEST_CONTEXT: CHO‐α1A cells; 5 h; read-out: cAMP accumulation Log EC50 (converted)
Output: class label from EC50. Mapping: small value: < 600 nM; mid value: ≥ 600 nM and < 2000 nM; large value: ≥ 2000 nM

[[record]]
compound = "Cc1cccc(C(C)c2cnc[nH]2)c1C (stereo not shown) [Medetomidine]"
tested_system = "human α1A‐adrenoceptor (Homo sapiens)"
answer_label = "mid value"

[[record]]
compound = "c1ccc2c(CC3=NCCN3)cccc2c1 [Naphazoline]"
tested_system = "human α1A‐adrenoceptor (Homo sapiens)"
answer_label = "small value"

[[record]]
compound = "N=C(N)NC(=O)Cc1c(Cl)cccc1Cl [Guanfacine]"
tested_system = "human α1A‐adrenoceptor (Homo sapiens)"
answer_label = "large value"

[[record]]
compound = "Brc1c(NC2=NCCN2)ccc2nccnc12 [Brimonidine]"
tested_system = "human α1A‐adrenoceptor (Homo sapiens)"
answer_label = "large value"

[[record]]
compound = "COc1ccc(OC)c(C(O)C(C)N)c1 (stereo not shown) [Methoxamine]"
tested_system = "human α1A‐adrenoceptor (Homo sapiens)"
answer_label = "large value"

[[record]]
compound = "Clc1ccc2nsnc2c1NC1=NCCN1 [Tizanidine]"
tested_system = "human α1A‐adrenoceptor (Homo sapiens)"
answer_label = "mid value"

[[record]]
compound = "c1ccc(C2CC2)c(OCC2=NCCN2)c1 [Cirazoline]"
tested_system = "human α1A‐adrenoceptor (Homo sapiens)"
answer_label = "small value"

[[record]]
compound = "Cc1cccc([C@H](C)c2cnc[nH]2)c1C [Dexmedetomidine]"
tested_system = "human α1A‐adrenoceptor (Homo sapiens)"
answer_label = "small value"

[[record]]
compound = "CCC1(c2cnc[nH]2)Cc2ccccc2C1 [Atipamezole]"
tested_system = "human α1A‐adrenoceptor (Homo sapiens)"
answer_label = "mid value"

[[record]]
compound = "CC(CCc1ccc(O)cc1)NCCc1ccc(O)c(O)c1 (stereo not shown) [Dobutamine]"
tested_system = "human α1A‐adrenoceptor (Homo sapiens)"
answer_label = "mid value"

